A collection of molecules and their measured Activity of mutant relative to wild-type Gaussia luciferase without the signal peptide
assay: Luminescence activity assay of purified Gaussia luciferase mutants on coelenterazine derivative ZS2; type: biochemical; design: key: ratio of mutant luminescence intensity to wild-type Gaussia luciferase; details: Substrate ZS2 (Table 16)
Respond numerically, and do not add a unit to the figure.

[
  {
    "molecule": "A17V H79K P84A E102D S103T E110P L124M: Gaussia luciferase mutant (protein, SIGNAL (1)..(17), Gaussia luciferase mutant) MGVKVLFALICIAVAEVKPTENNEDFNIVAVASNFATTDLDADRGKLPGKKLPLEVLKEMEANARKAGCTRGCLICLSKIKCTAKMKKFIPGRCHTYEGDKDTAQGGIGPAIVDIPEIPGFKDMEPMEQFIAQVDLCVDCTTGCLKGLANVQCSDLLKKWLPQRCATFASKIQGQVDKIKGAGGD",
    "meas_value": 0.082
  }
]

With those in mind, consider the next molecule.
State the recorded Activity of mutant relative to wild-type Gaussia luciferase without the signal peptide for this entry: F26R N27D V29D A30G A32D S33N T37A L40P: Gaussia luciferase mutant (protein, SIGNAL (1)..(17), Gaussia luciferase mutant) MGVKVLFALICIAVAEAKPTENNEDRDIDGVDNNFAATDPDADRGKLPGKKLPLEVLKEMEANARKAGCTRGCLICLSHIKCTPKMKKFIPGRCHTYEGDKESAQGGIGEAIVDIPEIPGFKDLEPMEQFIAQVDLCVDCTTGCLKGLANVQCSDLLKKWLPQRCATFASKIQGQVDKIKGAGGD
0.031

Reference for the values: patent US20250066745A1
